Readings of log10 EC50 for the listed compounds
# Test system: U937
# assay notes: Secondary dose-response HTS, Cell Titer Glo
# Format: cell-based, human
# assay setup: Homo sapiens, U-937; secondary high-throughput screen; U937; read-out: average effective concentration, U937
Recorded EC50 (log10, nM)

- compound: "CCN(CCCOc1ccc2c(Nc3cc(CC(=O)Nc4cccc(F)c4)n[nH]3)ncnc2c1)CCOP(=O)(O)O [barasertib, reference compound]"
  log10 EC50: 0.00
- compound: "O=C(/C=C/c1cccc(S(=O)(=O)Nc2ccccc2)c1)NO [BELINOSTAT]"
  log10 EC50: 2.23
- compound: "Cn1cc(-c2[nH]c3cc(NC(=O)[C@H](N)C4CCCCC4)cc4c3c2C=NNC4=O)cn1 [PF-477736]"
  log10 EC50: 2.00

Query: Return reported log10 EC50; argument: Nc1ncnc2c1nc(Cl)n2[C@@H]1O[C@H](CO)[C@@H](O)[C@H]1O [Compound 8-CHLOROADENOSINE]
Reply: 3.00

Query: What does the record list as log10 EC50 for CC(=O)c1c(C)c2cnc(Nc3ccc(N4CCNCC4)cn3)nc2n(C2CCCC2)c1=O [Palbociclib, reference compound] ?
Reply: 4.00

Query: I'd like to know its log10 EC50. The compound in question is C[C@@H](Oc1cc(-n2cnc3ccc(CN4CCN(C)CC4)cc32)sc1C(N)=O)c1ccccc1C(F)(F)F [GSK461364]
Reply: 1.95

Query: Param item = O=C(/C=C/c1ccc(CN(CCO)CCc2c[nH]c3ccccc23)cc1)NO [DACINOSTAT] ; retrieve measured log10 EC50.
Reply: 0.00
